- system-under-test: T1, 4H1544-bA
- T1 chain: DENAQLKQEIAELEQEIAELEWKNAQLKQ
- assay-info: two-hybrid library CCNG1;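 also: natural log of median RNA to DNA barcode read ratio; higher means stronger binding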
Outcome label depends on interaction score relative to -0.05: at/above gives 1 (yes), below gives 0 (no).

binder="DENAQLEQKIAELEQKNAELKWEIAQLKQ [4H1338-bA]" classification="0 (no)"
binder="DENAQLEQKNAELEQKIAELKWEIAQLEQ [4H1449-bA]" classification="0 (no)"
binder="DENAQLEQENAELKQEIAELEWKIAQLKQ [4H1222-bA]" classification="1 (yes)"
binder="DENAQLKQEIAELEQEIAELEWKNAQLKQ [4H1544-bA]" classification="1 (yes)"
binder="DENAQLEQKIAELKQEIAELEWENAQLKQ [4H1348-bA]" classification="0 (no)"
binder="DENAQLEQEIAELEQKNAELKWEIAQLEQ [4H1081-bA]" classification="0 (no)"
binder="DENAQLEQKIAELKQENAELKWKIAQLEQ [4H1373-bA]" classification="0 (no)"
